Reported values: IC50 for p110γ (Homo sapiens), one per item.
One number for each entry, in nM.

{"columns": ["compound", "IC50 [nM]"],
 "data": [
  ["CC(=O)c1c[nH]c2ncnc(N[C@H](C)c3cn4ccc(F)c4c(=O)n3-c3ccccc3)c12 [Compound 405]", 2],
  ["Cc1nc(N)nc(N2C[C@H](C)[C@H]2c2nn3ccc(F)c3c(=O)n2-c2cccc(F)c2)c1C#N [Compound 462]", 5],
  ["N#Cc1c[nH]c2ncnc(N3C[C@H](O)C[C@H]3c3nn4ccc(Cl)c4c(=O)n3-c3ccccc3)c12 [Compound 70]", 25],
  ["C[C@H]1CN(c2ncnc3[nH]cnc23)C1c1nn2ccc(Cl)c2c(=O)n1-c1ccccc1 (stereo partly drawn) [Compound 237]", 35],
  ["N#Cc1cnc(N)nc1N1C[C@@H](F)C[C@H]1c1nn2ccc(Cl)c2c(=O)n1-c1ccccc1 [Compound 229]", 2],
  ["C[C@H]1CN(c2nc(N)ncc2C#N)C1c1nn2ccc(Cl)c2c(=O)n1-c1ccc(F)cc1 (stereo partly drawn) [Compound 432]", 9]
]}

For every listed record, write down its IC50.
1. CC(=O)c1c(N)ncnc1N1CC[C@H]1c1nn2ccc(Cl)c2c(=O)n1-c1ccccc1 [Compound 300]
2. N#Cc1c[nH]c2ncnc(N3C[C@@H](O)C[C@H]3c3nn4ccc(Cl)c4c(=O)n3-c3cccc(F)c3)c12 [Compound 261]
3. O=c1c2c(Cl)ccn2nc([C@@H]2C[C@H](O)CN2c2ncnc3[nH]cnc23)n1-c1ccccc1 [Compound 262]
4. CC(=O)c1cnc(N)nc1N1C[C@H](C)[C@H]1c1nn2ccc(Cl)c2c(=O)n1-c1ccccc1 [Compound 301]
5. C[C@H]1CN(c2nc(N)ncc2C#N)[C@@H]1c1nn2ccc(Cl)c2c(=O)n1-c1ccccn1 [Compound 477]
6. Nc1nc(N2CC[C@H]2c2nn3ccc(Br)c3c(=O)n2-c2ccccc2)n2nccc2n1 [Compound 135]
7. N#Cc1c(N)ncnc1N1CCC[C@H]1c1nn2ccc(Cl)c2c(=O)n1-c1ccccc1 [Compound 32]
8. C/C(=N\O)c1c[nH]c2ncnc(N3CCC[C@H]3c3nn4ccc(Cl)c4c(=O)n3-c3ccccc3)c12 [Compound 306]

Reply |
1: 148; 2: 3; 3: 11; 4: 13; 5: 351; 6: 12; 7: 8; 8: 29

----------
study target: p110β/p85α (Homo sapiens, UniProt P42338)
Sequence (P42338 whole entry): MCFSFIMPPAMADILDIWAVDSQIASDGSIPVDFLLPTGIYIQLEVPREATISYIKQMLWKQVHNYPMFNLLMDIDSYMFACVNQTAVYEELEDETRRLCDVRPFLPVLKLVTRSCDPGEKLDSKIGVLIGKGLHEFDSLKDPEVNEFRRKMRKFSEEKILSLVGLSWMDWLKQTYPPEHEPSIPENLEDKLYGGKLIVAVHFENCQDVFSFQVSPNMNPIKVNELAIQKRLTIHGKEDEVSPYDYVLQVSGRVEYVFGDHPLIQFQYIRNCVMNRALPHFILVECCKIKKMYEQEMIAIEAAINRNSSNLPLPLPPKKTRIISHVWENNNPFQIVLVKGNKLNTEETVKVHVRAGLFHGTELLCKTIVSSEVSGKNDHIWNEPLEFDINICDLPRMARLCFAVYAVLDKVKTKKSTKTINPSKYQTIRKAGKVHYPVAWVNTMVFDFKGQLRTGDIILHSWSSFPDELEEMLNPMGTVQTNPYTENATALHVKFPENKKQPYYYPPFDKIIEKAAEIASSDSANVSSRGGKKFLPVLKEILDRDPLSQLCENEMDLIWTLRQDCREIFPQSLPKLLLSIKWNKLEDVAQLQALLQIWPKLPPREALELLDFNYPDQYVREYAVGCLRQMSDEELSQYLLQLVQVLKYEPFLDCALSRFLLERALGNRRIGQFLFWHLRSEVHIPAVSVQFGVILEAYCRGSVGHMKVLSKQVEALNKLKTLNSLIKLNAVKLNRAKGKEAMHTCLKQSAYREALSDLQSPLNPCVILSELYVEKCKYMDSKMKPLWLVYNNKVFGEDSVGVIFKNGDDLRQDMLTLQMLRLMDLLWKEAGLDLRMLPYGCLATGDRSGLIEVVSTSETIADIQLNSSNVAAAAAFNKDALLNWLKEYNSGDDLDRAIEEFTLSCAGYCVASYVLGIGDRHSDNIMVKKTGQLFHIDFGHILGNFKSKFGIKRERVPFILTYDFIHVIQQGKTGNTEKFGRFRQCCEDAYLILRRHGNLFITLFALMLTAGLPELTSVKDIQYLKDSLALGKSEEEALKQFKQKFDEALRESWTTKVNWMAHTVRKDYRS
Sequence (P27986 2-724 partner): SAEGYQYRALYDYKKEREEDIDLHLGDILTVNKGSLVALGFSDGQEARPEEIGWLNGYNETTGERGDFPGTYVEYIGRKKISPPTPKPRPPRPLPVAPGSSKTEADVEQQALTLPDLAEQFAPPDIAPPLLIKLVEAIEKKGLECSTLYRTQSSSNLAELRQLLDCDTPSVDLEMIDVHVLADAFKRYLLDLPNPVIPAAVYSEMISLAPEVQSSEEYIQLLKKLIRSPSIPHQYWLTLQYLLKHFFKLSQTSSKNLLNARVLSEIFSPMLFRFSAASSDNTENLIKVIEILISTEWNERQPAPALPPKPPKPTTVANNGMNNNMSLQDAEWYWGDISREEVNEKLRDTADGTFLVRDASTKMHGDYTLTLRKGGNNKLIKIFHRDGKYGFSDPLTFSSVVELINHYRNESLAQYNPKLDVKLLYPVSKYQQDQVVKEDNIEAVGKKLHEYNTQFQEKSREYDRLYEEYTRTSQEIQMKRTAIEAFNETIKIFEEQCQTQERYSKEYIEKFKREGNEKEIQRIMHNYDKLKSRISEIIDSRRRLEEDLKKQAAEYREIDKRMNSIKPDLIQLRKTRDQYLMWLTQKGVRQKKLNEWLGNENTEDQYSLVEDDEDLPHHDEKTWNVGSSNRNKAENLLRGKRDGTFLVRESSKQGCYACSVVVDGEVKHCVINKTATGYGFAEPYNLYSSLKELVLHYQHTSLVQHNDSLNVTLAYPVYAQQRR
assay name: Transcreener KINASE Assay, kinase inhibition of p110β/p85α
Format: biochemical
protocol conditions: 1 uM test compound
I'd be grateful if you could share measured PI3Kβ IH % @ 1 uM for these entries.
Don't forget the unit after the number, please.

{"columns": ["molecule", "PI3Kβ IH % @ 1 uM"],
 "data": [
  ["N#Cc1c[nH]c2ncnc(N3CCC[C@H]3c3nn4ccc(Cl)c4c(=O)n3CCN3CCOCC3)c12 [Compound 255]", "72.6%"]
]}

Lab note: each molecule below needs its PI3Kβ IH % @ 1 uM filled in.
1. CC(=O)c1cnc(N)nc1N1CCC[C@H]1c1nn2ccc(Cl)c2c(=O)n1-c1ccccc1 [Compound 369]
2. N#Cc1c(N)ncnc1N1CCC[C@H]1c1nn2ccc(Cl)c2c(=O)n1-c1ccccc1 [Compound 32]
3. CS(=O)(=O)c1cccc(-n2c([C@@H]3CCCN3c3ncnc4[nH]cc(C#N)c34)nn3ccc(Cl)c3c2=O)c1 [Compound 192]
4. Cc1ccn2nc([C@@H]3CCCN3c3nc(N)nc4[nH]cnc34)n(-c3ccccc3)c(=O)c12 [Compound 44]
5. COCc1ccn2nc([C@@H]3CCCN3c3nc(N)ncc3C(F)(F)F)n(-c3ccccc3)c(=O)c12 [Compound 151]

Reply |
1: 68.8%; 2: 96.7%; 3: 65.3%; 4: 74.3%; 5: 11.4%

For each of the items listed, what is its PI3Kβ IH % @ 1 uM?
1. COCc1ccn2nc([C@@H]3CCCN3c3ncnc4[nH]cc(C#N)c34)n(-c3ccccc3)c(=O)c12 [Compound 150]
2. CC(=O)c1cnc(N)nc1N1C[C@H](C)[C@H]1c1nn2ccc(F)c2c(=O)n1-c1ccccc1 [Compound 324]

Reply |
1. 31.5%
2. 67.1%

State recorded PI3Kβ IH % @ 1 uM for all listed molecules.
1. Nc1ncc(-c2c[nH]c3ncnc(N4CC[C@H]4c4nn5ccc(F)c5c(=O)n4-c4ccccc4)c23)cn1 [Compound 180]
2. CC(=O)c1cnc(N)nc1N1CC[C@H]1c1nn2ccc(Cl)c2c(=O)n1-c1ccccc1 [Compound 299]
3. N#Cc1c[nH]c2ncnc(N3C[C@@H](F)C[C@H]3c3nn4ccc(Cl)c4c(=O)n3-c3ccccn3)c12 [Compound 345]
4. C[C@H]1CN(c2ncnc3[nH]cc(C#N)c23)[C@@H]1c1nn2ccc(F)c2c(=O)n1-c1ccccc1 [Compound 244]
5. Nc1ccc(-c2c[nH]c3ncnc(N4CC[C@H]4c4nn5ccc(F)c5c(=O)n4-c4ccccc4)c23)cn1 [Compound 183]
6. Nc1nc(N2CC[C@H]2c2nn3ccc(Cl)c3c(=O)n2-c2ccccc2)n2ncc(Cl)c2n1 [Compound 314]
7. CS(=O)(=O)c1c[nH]c2ncnc(N3CCC[C@H]3c3nn4ccc(Cl)c4c(=O)n3-c3ccccc3)c12 [Compound 144]

Reply |
1. 92.8%
2. 38.6%
3. 93.2%
4. 58.4%
5. 77.2%
6. 16.8%
7. 62.5%

----------
study target: p110δ/p85α (Homo sapiens)
Sequence (O00329 whole entry): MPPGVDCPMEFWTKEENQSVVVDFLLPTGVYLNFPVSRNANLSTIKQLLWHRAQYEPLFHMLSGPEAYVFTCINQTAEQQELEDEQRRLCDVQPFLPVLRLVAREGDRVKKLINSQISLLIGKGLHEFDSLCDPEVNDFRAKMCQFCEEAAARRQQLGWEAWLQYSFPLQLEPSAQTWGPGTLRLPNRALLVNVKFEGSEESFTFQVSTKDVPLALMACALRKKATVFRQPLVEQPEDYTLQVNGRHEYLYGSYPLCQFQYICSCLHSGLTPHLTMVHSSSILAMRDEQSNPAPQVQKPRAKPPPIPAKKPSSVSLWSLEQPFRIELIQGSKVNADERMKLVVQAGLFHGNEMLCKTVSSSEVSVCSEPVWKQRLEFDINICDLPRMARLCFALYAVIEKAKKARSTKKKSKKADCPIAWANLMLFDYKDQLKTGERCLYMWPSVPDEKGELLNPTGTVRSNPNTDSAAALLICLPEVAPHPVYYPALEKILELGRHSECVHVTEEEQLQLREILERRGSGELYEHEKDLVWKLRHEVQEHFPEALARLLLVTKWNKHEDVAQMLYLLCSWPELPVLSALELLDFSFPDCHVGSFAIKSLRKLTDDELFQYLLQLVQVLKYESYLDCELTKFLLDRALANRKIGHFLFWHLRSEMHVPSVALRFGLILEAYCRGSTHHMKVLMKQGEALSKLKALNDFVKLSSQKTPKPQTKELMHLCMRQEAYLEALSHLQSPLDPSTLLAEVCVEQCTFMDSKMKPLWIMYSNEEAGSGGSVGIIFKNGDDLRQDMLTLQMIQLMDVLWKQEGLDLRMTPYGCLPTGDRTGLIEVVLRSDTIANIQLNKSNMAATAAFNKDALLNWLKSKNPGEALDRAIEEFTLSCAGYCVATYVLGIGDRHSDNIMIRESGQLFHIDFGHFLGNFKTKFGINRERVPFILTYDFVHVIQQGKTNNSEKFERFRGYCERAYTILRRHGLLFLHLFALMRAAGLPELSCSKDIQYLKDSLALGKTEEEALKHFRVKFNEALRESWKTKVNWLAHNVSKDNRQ
Sequence (P27986 whole entry partner): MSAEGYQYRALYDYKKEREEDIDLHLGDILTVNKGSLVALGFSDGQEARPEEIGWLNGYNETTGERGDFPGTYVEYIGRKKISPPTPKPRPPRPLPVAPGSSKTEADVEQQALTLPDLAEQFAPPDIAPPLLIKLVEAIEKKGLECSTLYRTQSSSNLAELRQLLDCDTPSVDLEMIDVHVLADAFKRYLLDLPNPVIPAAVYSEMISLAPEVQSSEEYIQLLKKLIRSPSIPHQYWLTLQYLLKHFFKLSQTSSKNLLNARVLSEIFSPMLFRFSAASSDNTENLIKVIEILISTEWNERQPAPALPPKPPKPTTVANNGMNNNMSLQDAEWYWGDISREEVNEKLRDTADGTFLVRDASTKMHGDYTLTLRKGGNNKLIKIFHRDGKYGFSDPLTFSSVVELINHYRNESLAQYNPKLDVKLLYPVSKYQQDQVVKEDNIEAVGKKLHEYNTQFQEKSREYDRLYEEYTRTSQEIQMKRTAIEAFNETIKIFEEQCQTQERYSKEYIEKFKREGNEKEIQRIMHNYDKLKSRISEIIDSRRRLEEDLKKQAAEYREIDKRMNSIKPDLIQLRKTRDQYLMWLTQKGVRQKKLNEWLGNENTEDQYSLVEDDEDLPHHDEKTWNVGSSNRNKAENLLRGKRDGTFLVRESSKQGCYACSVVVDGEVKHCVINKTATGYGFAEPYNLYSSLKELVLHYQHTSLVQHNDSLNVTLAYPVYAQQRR
assay name: Transcreener KINASE Assay, kinase inhibition of p110δ/p85α
protocol conditions: read-out: PI3Kδ IC50
Procedure: PI3K kinases including p110α/p85α, p110δ/p85α and p110γ are purchased from Invitrogen, and p110β/p85α is from Millipore. Primary screening data and IC50 values are measured using Transcreener™ KINASE Assay (Bellbrook, Catalog #3003-10K). […] It is a universal, homogenous, high throughput screening (HTS) technology using a far-red, competitive fluorescence polarization immunoassay based on the detection of ADP to monitor the activity of enzymes that catalyze group transfer reactions. […]
Kindly supply the reported pIC50 values for the records listed here.
Answers are plain numbers, as −log10 of the molar value.

Solved cases (3 shown):
{"columns": ["compound", "study target", "measure name", "recorded measurement"],
 "data": [
  ["C[C@H]1CN(c2ncnc3[nH]cc(C#N)c23)[C@@H]1c1nn2ccc(Cl)c2c(=O)n1-c1ccccn1 [Compound 476]", "p110δ/p85α (Homo sapiens)", "pIC50", 9.00],
  ["N#Cc1c[nH]c2ncnc(N3CC[C@H]3c3nn4ccc(Cl)c4c(=O)n3Cc3cccnc3)c12 [Compound 61]", "p110δ/p85α (Homo sapiens)", "pIC50", 6.51],
  ["CC(=O)c1c[nH]c2ncnc(N3CCC[C@H]3c3nn4ccc(Cl)c4c(=O)n3-c3ccccc3)c12 [Compound 211]", "p110δ/p85α (Homo sapiens)", "pIC50", 9.30]
]}

Each compound below has a reported value. Please supply its pIC50.
1. Cc1nc(N)nc(N2CC[C@H]2c2nn3ccc(C(F)(F)F)c3c(=O)n2-c2ccccc2)c1C#N [Compound 487]
2. C[C@H]1CN(c2nc(N)ncc2C#N)[C@@H]1c1nn2ccc(C(F)(F)F)c2c(=O)n1-c1ccccc1 [Compound 490]
3. N#Cc1c[nH]c2ncnc(N3CC[C@H]3c3nn4ccc(C(F)(F)F)c4c(=O)n3-c3ccccc3)c12 [Compound 488]
4. C#Cc1ccn2nc([C@@H]3CCN3c3ncnc4[nH]cc(C#N)c34)n(-c3ccccc3)c(=O)c12 [Compound 105]

Reply |
1. 8.22
2. 7.27
3. 7.74
4. 7.82

----------
study target: p110δ/p85α (Homo sapiens)
assay name: Transcreener KINASE Assay, kinase inhibition of p110δ/p85α
protocol conditions: read-out: PI3Kδ IC50
measure name: IC50 (nM)
Give bare numbers, in nM.

Some solved entries appear below for comparison.
{"columns": ["molecule", "IC50 (nM)"],
 "data": [
  ["C[S@@+]([O-])c1c[nH]c2ncnc(N3CCC[C@H]3c3nn4ccc(Cl)c4c(=O)n3-c3ccccc3)c12", 4],
  ["CC(=O)c1cnc(N)nc1N1C[C@H](C)[C@H]1c1nn2ccc(Cl)c2c(=O)n1-c1ccc(F)cc1", 7],
  ["C=Cc1ccn2nc([C@@H]3CCCN3c3ncnc4[nH]cc(C#N)c34)n(-c3ccccc3)c(=O)c12", 7],
  ["Nc1nc(N2CC(F)(F)C[C@H]2c2nn3ccc(Cl)c3c(=O)n2-c2ccccc2)n2nccc2n1", 124]
]}

// each molecule listed below needs its IC50
1. Nc1nc2c(c(N3CCCC3c3cn4ccc(Cl)c4c(=O)n3-c3ccccc3)n1)C(=O)CCN2 (stereo not shown)
2. CC(=O)c1cnc(N)nc1N1CC[C@H]1c1nn2ccc(Cl)c2c(=O)n1-c1cccc(C)n1
3. CS(=O)(=O)[C@H]1C[C@@H](c2nn3ccc(Cl)c3c(=O)n2-c2ccccc2)N(c2ncnc3[nH]cnc23)C1

Reply |
1: 2; 2: 10; 3: 11
